target: CYP450 (20-HETE formation) (Homo sapiens, UniProt P04798+P05177+P05181+P08684+P10632+P10635+P11509+P11712+P13584+P20813+P20815+P20853+P24462+P24903+P33260+P33261+P51589+P78329+P98187+Q02928+Q08477+Q16678+Q16696+Q5TCH4+Q6VVX0+Q7Z449+Q8TAV3+Q96SQ9+Q9HB55); assay: Inhibition of CYP450 in human HCT-116 cells assessed as 20-HETE formation in presence of arachidonic acid incubated for 15 mins by multi-enzyme assay based LC-MS/MS analysis; assay type: ADME, cell-based; conditions: probe arachidonic acid
measured-quantity: IC50 at 15 min

Quick note, IC50 at 15 min for "O=c1cc(-c2ccc(C(F)(F)F)cc2)oc2ccccc12" landed at 1.1 µM

Hello, the source for this data is ChEMBL document CHEMBL5113402, in case you need it.
